method: Equilibrium solubility of the compound
Format: physicochemical
readoutLabel: solubility thermodynamic (µM)

[[record]]
compound = "C[C@H]1O[C@@H](n2cnc3c(N)nc(OC4CCCC4)nc32)[C@H](O)[C@H]1Cl"
readoutlabel = "solubility thermodynamic"
unitabbrev = "µM"
operatorsymbol = "="
reportedmeasurement = 304

[[record]]
compound = "C[C@H]1O[C@@H](n2cnc3c(N)nc(OCC4CC45CC5)nc32)[C@H](O)[C@@H]1O (stereo not given in full)"
readoutlabel = "solubility thermodynamic"
unitabbrev = "µM"
operatorsymbol = "="
reportedmeasurement = 801

[[record]]
compound = "C[C@H]1O[C@@H](n2cnc3c(N)nc(OCC4CC45CC5)nc32)[C@H](O)[C@H]1Cl (stereo not given in full)"
readoutlabel = "solubility thermodynamic"
unitabbrev = "µM"
operatorsymbol = "="
reportedmeasurement = 21

[[record]]
compound = "C[C@H]1O[C@@H](n2cnc3c(N)nc(O[C@H]4CC[C@H](C)CC4)nc32)[C@H](O)[C@@H]1O"
readoutlabel = "solubility thermodynamic"
unitabbrev = "µM"
operatorsymbol = "="
reportedmeasurement = 934

[[record]]
compound = "C[C@H]1O[C@@H](n2cnc3c(N)nc(OC4CCCC4)nc32)[C@H](O)[C@@H]1OCc1ccc(Cl)c(Cl)c1"
readoutlabel = "solubility thermodynamic"
unitabbrev = "µM"
operatorsymbol = "<"
reportedmeasurement = 1


====

method: Inhibition of Streptococcus pneumoniae LigA by FRET-based assay
readoutLabel: IC50 (nM)

[[record]]
molecule = "CCCCSc1nc(N)c2ncn([C@@H]3O[C@H](C)[C@@H](O)[C@H]3O)c2n1"
readoutlabel = "IC50"
operatorsymbol = "="
reportedmeasurement = 130

[[record]]
molecule = "C[C@H]1O[C@@H](n2cnc3c(N)nc(Oc4ccccc4)nc32)[C@H](O)[C@@H]1O"
readoutlabel = "IC50"
operatorsymbol = "="
reportedmeasurement = 2670

[[record]]
molecule = "Nc1nc(OCC2CCC2)nc2c1ncn2[C@@H]1O[C@H](CF)[C@@H](O)[C@H]1O"
readoutlabel = "IC50"
operatorsymbol = "="
reportedmeasurement = 50

[[record]]
molecule = "C[C@H]1O[C@@H](n2cnc3c(N)nc(OC4CCCC4)nc32)[C@H](O)[C@H]1Cl"
readoutlabel = "IC50"
operatorsymbol = "="
reportedmeasurement = 40

[[record]]
molecule = "Nc1nc(SC2CCCC2)nc2c1ncn2[C@@H]1O[C@H](CO)[C@@H](O)[C@H]1O"
readoutlabel = "IC50"
operatorsymbol = "="
reportedmeasurement = 440

[[record]]
molecule = "C[C@H]1O[C@@H](n2cnc3c(N)nc(OC4CCCC4)nc32)[C@H](O)[C@@H]1OCc1ccc(Cl)c(Cl)c1"
readoutlabel = "IC50"
operatorsymbol = "<"
reportedmeasurement = 10

[[record]]
molecule = "Nc1nc(OC2CCCC2)nc2c1ncn2[C@@H]1O[C@H](CO)[C@H](Cl)[C@H]1O"
readoutlabel = "IC50"
operatorsymbol = "="
reportedmeasurement = 80

[[record]]
molecule = "C[C@H]1O[C@@H](n2cnc3c(N)nc(OCC4CC45CC5)nc32)[C@H](O)[C@@H]1O (some centres undefined)"
readoutlabel = "IC50"
operatorsymbol = "="
reportedmeasurement = 40

[[record]]
molecule = "Nc1nc(OCC2(CO)CC2)nc2c1ncn2[C@@H]1O[C@H](CF)[C@@H](O)[C@H]1O"
readoutlabel = "IC50"
operatorsymbol = "="
reportedmeasurement = 400


====

studySystem: DNA ligase 1 (Homo sapiens)
Sequence (P18858 whole entry): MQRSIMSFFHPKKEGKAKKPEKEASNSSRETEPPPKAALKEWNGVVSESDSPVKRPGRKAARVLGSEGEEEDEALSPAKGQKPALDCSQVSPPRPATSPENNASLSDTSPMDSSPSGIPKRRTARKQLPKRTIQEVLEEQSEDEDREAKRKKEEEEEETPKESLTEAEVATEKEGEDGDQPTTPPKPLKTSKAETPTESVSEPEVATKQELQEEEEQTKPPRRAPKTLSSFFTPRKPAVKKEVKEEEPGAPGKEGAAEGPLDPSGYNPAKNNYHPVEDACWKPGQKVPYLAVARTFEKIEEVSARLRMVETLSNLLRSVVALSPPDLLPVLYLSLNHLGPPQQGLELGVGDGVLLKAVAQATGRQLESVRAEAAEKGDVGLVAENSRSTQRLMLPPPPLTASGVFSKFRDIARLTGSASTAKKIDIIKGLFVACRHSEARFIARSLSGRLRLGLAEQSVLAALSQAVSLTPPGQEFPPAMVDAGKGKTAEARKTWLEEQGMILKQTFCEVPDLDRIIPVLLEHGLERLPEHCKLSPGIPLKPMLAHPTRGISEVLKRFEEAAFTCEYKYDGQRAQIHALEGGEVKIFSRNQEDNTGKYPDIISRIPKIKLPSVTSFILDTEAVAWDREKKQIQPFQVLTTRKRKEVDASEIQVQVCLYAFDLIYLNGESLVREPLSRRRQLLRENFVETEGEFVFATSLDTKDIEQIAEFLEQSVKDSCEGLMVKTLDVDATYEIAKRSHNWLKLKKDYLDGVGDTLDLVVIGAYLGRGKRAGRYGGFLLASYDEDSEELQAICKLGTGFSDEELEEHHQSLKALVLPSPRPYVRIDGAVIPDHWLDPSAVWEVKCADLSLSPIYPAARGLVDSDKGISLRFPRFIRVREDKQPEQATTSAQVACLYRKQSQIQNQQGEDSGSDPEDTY
readoutLabel: IC50

[[record]]
compoundstructure = "CCCCSc1nc(N)c2ncn([C@@H]3O[C@H](CO)[C@@H](O)[C@H]3O)c2n1"
readoutlabel = "IC50"
reportedmeasurement = "> 200 µM"


====

method: Plasma protein binding in human assessed as fraction unbound by equilibrium dialysis method
Assay type: ADME, cell-free
fraction unbound values, listed per item
readoutLabel: fraction unbound

[[record]]
molecule = "CCCCSc1nc(N)c2ncn([C@@H]3O[C@H](CO)[C@@H](O)[C@H]3O)c2n1"
reportedmeasurement = 0.003

[[record]]
molecule = "C[C@H]1O[C@@H](n2cnc3c(N)nc(OCC4CC45CC5)nc32)[C@H](O)[C@H]1Cl (stereo partly specified)"
reportedmeasurement = 0.04

[[record]]
molecule = "C[C@H]1O[C@@H](n2cnc3c(N)nc(OCC4CC45CC5)nc32)[C@H](O)[C@@H]1O (stereo partly specified)"
reportedmeasurement = 0.25

[[record]]
molecule = "Nc1nc(OC2CCCC2)nc2c1ncn2[C@@H]1O[C@H](CO)[C@@H](O)[C@H]1O"
reportedmeasurement = 0.66

[[record]]
molecule = "C[C@H]1O[C@@H](n2cnc3c(N)nc(O[C@H]4CC[C@H](C)CC4)nc32)[C@H](O)[C@@H]1O"
reportedmeasurement = 0.27

[[record]]
molecule = "[N-]=[N+]=N[C@@H]1[C@@H](O)[C@H](n2cnc3c(N)nc(OC4CCCC4)nc32)O[C@@H]1CF"
reportedmeasurement = 0.19


====

method: Apparent permeability from apical to basolateral side in human Caco2 cells
Type: ADME, cell-based
conditionInfo: Caco-2
readoutLabel: Papp A→B

[[record]]
compoundstructure = "C[C@H]1O[C@@H](n2cnc3c(N)nc(OC4CCCC4)nc32)[C@H](O)[C@@H]1O"
reportedmeasurement = "7.26 ×10⁻⁶ cm/s"

